// provenance: paper PMC9482650

Target: FRMPD3, Q5JV73
Sequence (Q5JV73 12-100): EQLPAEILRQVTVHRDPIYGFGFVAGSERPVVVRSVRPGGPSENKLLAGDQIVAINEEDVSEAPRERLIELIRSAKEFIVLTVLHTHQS
Experiment: holdup assay
Design: key: below the threshold = too weak to quantify, mostly under pKd 3.1 to 4
Settings: plain residues with an end cap or a label only (N-terminal biotin on a linker: ado-ado)
EXPERIMENTAL READOUT: pKd

* PPGKHLVTEV [KCNA7, Q96RP8] | below the threshold
* SVTSERETNI [SLC16A7, O60669] | below the threshold
* LESTTVGTSV [KARS1, Q15046] | below the threshold
* QRPYRRGSEI [KCNJ18, B7U540] | below the threshold
